Origin of measurements: patent US20190153103A1

Reported values of % live, Fab-saporin, 250pM for individual entries
# testTarget: rat BMPR1B overexpressed on the surface of HEK293T cells (N-terminal Asp-Lys epitope tag, … (rat, UniProt A0A8I6A0G0 62-550))
# Sequence (chain, as listed by the source): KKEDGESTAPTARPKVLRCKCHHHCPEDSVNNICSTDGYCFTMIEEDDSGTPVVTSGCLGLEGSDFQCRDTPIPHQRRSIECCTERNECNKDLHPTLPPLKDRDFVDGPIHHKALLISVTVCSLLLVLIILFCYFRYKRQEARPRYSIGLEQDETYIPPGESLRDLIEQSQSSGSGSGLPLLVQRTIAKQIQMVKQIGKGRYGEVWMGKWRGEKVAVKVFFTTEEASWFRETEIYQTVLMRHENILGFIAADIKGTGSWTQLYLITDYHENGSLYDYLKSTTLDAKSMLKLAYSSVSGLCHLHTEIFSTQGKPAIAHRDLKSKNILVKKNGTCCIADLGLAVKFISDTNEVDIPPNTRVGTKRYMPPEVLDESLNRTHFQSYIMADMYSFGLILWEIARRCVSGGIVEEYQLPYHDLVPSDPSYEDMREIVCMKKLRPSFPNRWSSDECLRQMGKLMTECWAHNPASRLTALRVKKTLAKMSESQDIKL
# test: cell-based or functional assay
Just the number in %, nothing appended.

INSERT INTO results (binder, quantityunit, reportedresult) VALUES
  ('SC91.111 (antibody, V domains shown, copies: 2 + 2) VH: QIQLVQSGPELKKPGETVKISCKASGYTLTTYGMNWVKQAPGKGLKWMGWINTYSGVPAYADDFKGRFAFSLETSASTAYLQINNFKNEDTATYFCARSELRNWYFDVWGTGTTVTVSS VL: SFVMTQTPKFLLVSAGDRVTITCKASQNMGHNVAWYQQKPGQSPKLLIYYASNRYTGVPDRFTGSGYGTDFTFTISTVQAEDLAVYFCQQDYSSPFTFGSGTKLEIK', '%', 87.1),
  ('SC91.155 (antibody, V domains shown) VH: QIQLVQSGPELKKPGETVKISCKASGYTFTTYGMNWVKQAPGKGLKWMGWINSYSGVPAYADDFKGRFAFSLETFASTAYLQINNLRDEDTATYFCARSELRNWYFDVWGTGTTVTVSS VL: SFVMTQTPKFLLVSAGDRVTITCKASQNLGNDVAWYQQKPGQSPRLLIYFASNRYTGVPDRFTGSGYGTDFTFTISTVQAEDLAVYFCQQDYSSPFTFGSGTKLEIK', '%', 81.1),
  ('SC91.172 (antibody, V domains shown) VH: QVQLQQPGADLVKPGTSVKLSCKASGYTFTSYWMQWVKQRPGQGLEWIGEIDPSDTYTMYNQKFKGKATLTVDTSSSTAYMQLSSLTSEDSAVYYCARFGYYVDYWGQGTTLTVSS VL: DVVMTQTPLSLPVSLGDQASISCRSSQSLVHSTGNTYLHWYLQKAGQSPKLLIYKVSNRFSGVPDRFSGSGSGTDFTLKISRVEAEDLGVYFCSQSTHVPFTFGSGTKLEIK', '%', 34.1),
  ('SC91.129 (antibody, V domains shown, copies: 2 + 2) VH: QVQLQQPGAELVKPGASVKLSCKASGYTFTNYWMQWVKQRPGQGLEWIGEIDPSDRYTLYNQKFKDKATLTVDTSSSTAYMQLSSLTSEDSAVYYCARFGYYVDYWGQGTTLTVSS VL: DAVMTQSPLSLPVSLGDQASISCRSSQSLVHSTGNTYLHWYLQKPGQSPKLLIYKVSNRFSGVPDRFSGSGSGTDFTLKISRVEAEDLGVYFCSQTTHVPFTFGSGTKLEIK', '%', 39.2);

So for SC91.149 (antibody, V domains shown) VH: QVQLLQPGAELVKPGSSVKVSCKASGYTFTNYWMQWVKQRPGQGLEWIGEIDPSDTYTLYNQKFKGKATLTVDTSSSTAYMQLSSLTSEDSAVYYCARFGYYVDYWGQGTTLTVSS VL: DVVMTQTPLSLPVSLGDQASISCRSSQSLVHSTGNTYFHWYLQKPGQSPELLIYKVSNRFSGVPDRFRGSGSGTDFTLKISRVEAEDLGVYFCSQSTHVPFTFGSGTKLEIK , the logged % live, Fab-saporin, 250pM turned out to be 29.1
